melting point values, listed per item

>>> result("c1c2c(c(C3CC3)c3c1OCCN3CC1CCOCC1)CCNCC2")
"153 to 155 °C"
>>> result("Cc1ccccc1CN1CCOc2cc3c(c(C4CC4)c21)CCNCC3.O=C(O)/C=C/C(=O)O")
"163 to 166 °C"
>>> result("CCc1c2c(cc3c1N(CCOC)CCO3)CCNCC2.O=C(O)/C=C/C(=O)O")
"159 to 163 °C"
>>> result("COCCN1CCOc2cc3c(c(-c4ccccc4)c21)CCNCC3.O=C(O)/C=C/C(=O)O")
"199 to 201 °C"
>>> result("O=C(O)CCC(=O)O.O=C(OCCc1ccccc1)N1CCOc2c1cc1c(c2C2CC2)CCNCC1")
"142 to 144 °C"

// query melting point value for entry O=C(O)CCC(=O)O.O=C(OCCc1ccccc1Cl)N1CCCc2cc3c(cc21)CCNCC3
187 to 188 °C

Further, for COCCN1c2cc3c(cc2CCC1(C)C)CCNCC3.O=C(O)/C=C/C(=O)O ?
156 to 158 °C

What about this compound? Fc1ccccc1CN1CCOc2cc3c(c(C4CC4)c21)CCNCC3.O=C(O)/C=C/C(=O)O
133 to 136 °C

Param item: O=C(O)CCC(=O)O.O=C(OCCc1ccccc1Cl)N1CCOc2cc3c(cc21)CCNCC3
169 to 170 °C

Also need COc1ccc(CN2C(=O)COc3cc4c(cc32)CCNCC4)cc1.O=C(O)CCC(=O)O , thanks.
173 to 176 °C

FC(F)(F)c1cccc(CN2CCOc3cc4c(cc32)CCNCC4)c1.O=C(O)/C=C/C(=O)O ?
141 to 146 °C

Also need O=C(O)/C=C/C(=O)O.c1ccc2c(c1)OCC(CN1CCOc3cc4c(c(C5CC5)c31)CCNCC4)O2 (stereo not shown) , thanks.
179 to 182 °C

What about CC1CNc2cc3c(cc2O1)CCNCC3 (stereo not shown) ?
193 to 194 °C

Also COC[C@@H](CN1CCOc2cc3c(c(C4CC4)c21)CCNCC3)OC.O=C(O)/C=C/C(=O)O ?
156 to 158 °C

Next compound: COc1ccc(Cl)cc1CN1CCOc2cc3c(c(C4CC4)c21)CCNCC3.O=C(O)/C=C/C(=O)O
193 to 196 °C

For COc1cccc(CN2C(=O)COc3cc4c(cc32)CCNCC4)c1.O=C(O)CCC(=O)O then?
188 to 189 °C

What do you get for COCCCN1C(=O)CCc2cc3c(c(Br)c21)CCNCC3.O=C(O)/C=C/C(=O)O ?
153 to 155 °C

Now consider COCCN1CC(C)Oc2cc3c(c(C4CC4)c21)CCNCC3.O=C(O)/C=C/C(=O)O (stereo not shown) .
102 to 103 °C

Check COCCN1CCOc2c1cc1c(c2Br)CCNCC1 too.
107 to 110 °C

What about this compound? COCC(F)(F)CN1CCOc2cc3c(c(C4CC4)c21)CCNCC3.O=C(O)/C=C/C(=O)O
163 to 165 °C

CCCN1CCOc2cc3c(c(C4CC4)c21)CCNCC3.O=C(O)/C=C/C(=O)O ?
138 to 141 °C

Repeat for the following compound: O=C(O)CCC(=O)O.O=C1COc2cc3c(cc2N1Cc1ccccc1Cl)CCNCC3
119 to 127 °C

meta.source: patent US9598434B2
